Molecular target: T1, cynomolgus monkey EL-C2 tag (cynomolgus monkey, UniProt Q9Y5X9 21-500 (human entry), limits assumed)
T1 construct: used as heparin extract of transfected HEK293F cells; also called cynomolgus EL
T1 chain: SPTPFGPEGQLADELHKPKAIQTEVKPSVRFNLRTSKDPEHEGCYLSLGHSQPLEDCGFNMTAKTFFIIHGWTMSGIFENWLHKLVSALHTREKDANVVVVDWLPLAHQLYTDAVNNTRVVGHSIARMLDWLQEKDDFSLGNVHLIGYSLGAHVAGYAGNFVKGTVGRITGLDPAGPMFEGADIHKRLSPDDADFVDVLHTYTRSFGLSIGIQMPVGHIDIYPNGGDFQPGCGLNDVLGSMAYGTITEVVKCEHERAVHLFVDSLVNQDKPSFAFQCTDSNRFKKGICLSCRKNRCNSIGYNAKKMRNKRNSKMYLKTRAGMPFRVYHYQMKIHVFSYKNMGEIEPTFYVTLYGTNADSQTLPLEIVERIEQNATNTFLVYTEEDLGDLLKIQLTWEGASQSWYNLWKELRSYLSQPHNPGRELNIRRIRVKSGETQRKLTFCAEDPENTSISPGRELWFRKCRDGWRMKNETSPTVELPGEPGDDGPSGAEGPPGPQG
Assay: Biacore SPR; EL heparin extract captured by anti-C2-tag antibody on CM5, antibody as analyte, bivalent fit
experimental readout: kon (M⁻¹ s⁻¹)
Expressed in M⁻¹ s⁻¹, but write only the number.

Here's what some known entries look like.
| binder | kon [M⁻¹ s⁻¹] |
| --- | --- |
| 3B1 antibody (antibody, IgG1, V domains shown) VH: QVTLKESGPGILQPSQTLSLTCSFSGFSLSTSGVGVGWIRQPSGKGLEWLAHIWWNDNKYYNTALKSRLTISKDTSNNQVFLKIASVDTADTATYFCARSYDGYPFDYWGQGTLVTVSA VL: DIQMTQSPSSLSASLGGKVTITCKASQDINKYIVWYQHKPGKGPRLLIHHTSTLQPGIPSRFSESGSGRDYSFSISNLEPEDIASYYCLQYDTLLWTFGGGTKLEIR | 180000 |
| 12B10 antibody (antibody, IgG2a, V domains shown) VH: QVTLKESGPGILKPSQTLSLTCSFSGFSLSTSGMGVGWIRQPSGKGLEWLAHIWWNDEKYYNPSLKSQLTISKDTSRNQVFLKITSVDTADTATYYCARSYDGSPFPSWGQGTLVTVSA VL: DIQMTQSPSSLSASLGGKVTITCKASQDINKYIAWFQHKPGKGPRLLMAYPFTLQPGIPSRFSGNGSGRDYSFSISNLEPEDIATYYCLQYDNLLWTFGGGTRLEIK | 880000 |

Moving on to another binder below.
q: # query: kon of entry 8F5 antibody (antibody, IgG2a, V domains shown) VH: QVTLKESGPGILQPSQTLSLTCSFSGFSLSTSNMGVGWIRQPSGKGLEWLAHIWWNDYKYYNTALKSRLTISKDTSNNQVFLKIASLDTADTATYYCARIGGGTPLDYWGQGTSLTVSS VL: DIQMAQSPSSLSASLGGKVTITCKASQDIHTYIAWYQHKPGKGPRLLMLYTSTLQPGIPSRFSGSGSGRDYSFSISNLEPEDIATYYCLQYDDLLWTFGGGTKLEIK
a: 140000
